target: T1, Recombinant Human DLL4 (human, UniProt Q9NR61 27-524); test: ECL (MSD) 96-well plate assay, DLL4 coated at 15 ug/mL, Fab 0.02 uM; signal over blank
T1 construct: Bought recombinant human DLL4 (R&D Systems Cat#1506-D4/CF), coated on the plate; also called delta-like protein 4; rHuman DLL4
Catalogue of Signal/Noise readings, one per entry.
property: Signal/Noise

Fab VH5-51_IGHD5-18*01>3_IGHJ4*01 G104S & V3-4_IGLJ1*01 (Fab, V domains shown, Fab; VH-CH1 (His6/Flag, Plasmid A) and VL-lambda CL (Plasmid E)) VH: EVQLVQSGAEVKKPGESLKISCKGSGYSFTSYWIGWVRQMPGKGLEWMGIIYPGDSDTRYSPSFQGQVTISADKSISTAYLQWSSLKASDTAMYYCARRGYSYSYDYFDYWGQGTLVTVSS VL: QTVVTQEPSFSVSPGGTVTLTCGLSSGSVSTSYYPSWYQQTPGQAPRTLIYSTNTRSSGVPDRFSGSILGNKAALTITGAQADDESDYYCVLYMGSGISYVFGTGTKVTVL
25.6
Fab VH5-51_IGHD5-18*01>3_IGHJ4*01 G104K & V3-4_IGLJ1*01 (Fab, V domains shown, Fab; VH-CH1 (His6/Flag, Plasmid A) and VL-lambda CL (Plasmid E)) VH: EVQLVQSGAEVKKPGESLKISCKGSGYSFTSYWIGWVRQMPGKGLEWMGIIYPGDSDTRYSPSFQGQVTISADKSISTAYLQWSSLKASDTAMYYCARRGYSYKYDYFDYWGQGTLVTVSS VL: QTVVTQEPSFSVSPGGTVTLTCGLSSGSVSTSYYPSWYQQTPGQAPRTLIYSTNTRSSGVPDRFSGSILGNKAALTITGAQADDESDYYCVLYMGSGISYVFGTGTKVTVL
9.1
Fab VH5-51_IGHD5-18*01>3_IGHJ4*01 G100D & V3-4_IGLJ1*01 (Fab, V domains shown, Fab; VH-CH1 (His6/Flag, Plasmid A) and VL-lambda CL (Plasmid E)) VH: EVQLVQSGAEVKKPGESLKISCKGSGYSFTSYWIGWVRQMPGKGLEWMGIIYPGDSDTRYSPSFQGQVTISADKSISTAYLQWSSLKASDTAMYYCARRDYSYGYDYFDYWGQGTLVTVSS VL: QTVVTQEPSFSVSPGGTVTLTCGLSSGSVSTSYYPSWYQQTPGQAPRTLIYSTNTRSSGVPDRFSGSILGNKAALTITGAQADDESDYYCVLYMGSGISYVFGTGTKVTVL
2
Fab VH5-51_IGHD5-18*01>3_IGHJ4*01 G104A & V3-4_IGLJ1*01 (Fab, V domains shown, Fab; VH-CH1 (His6/Flag, Plasmid A) and VL-lambda CL (Plasmid E)) VH: EVQLVQSGAEVKKPGESLKISCKGSGYSFTSYWIGWVRQMPGKGLEWMGIIYPGDSDTRYSPSFQGQVTISADKSISTAYLQWSSLKASDTAMYYCARRGYSYAYDYFDYWGQGTLVTVSS VL: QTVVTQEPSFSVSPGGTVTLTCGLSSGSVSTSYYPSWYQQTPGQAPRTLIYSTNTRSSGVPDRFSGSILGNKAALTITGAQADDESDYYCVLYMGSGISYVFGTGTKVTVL
2.6
Fab VH5-51_IGHD5-18*01>3_IGHJ4*01 G100R & V3-4_IGLJ1*01 (Fab, V domains shown, Fab; VH-CH1 (His6/Flag, Plasmid A) and VL-lambda CL (Plasmid E)) VH: EVQLVQSGAEVKKPGESLKISCKGSGYSFTSYWIGWVRQMPGKGLEWMGIIYPGDSDTRYSPSFQGQVTISADKSISTAYLQWSSLKASDTAMYYCARRRYSYGYDYFDYWGQGTLVTVSS VL: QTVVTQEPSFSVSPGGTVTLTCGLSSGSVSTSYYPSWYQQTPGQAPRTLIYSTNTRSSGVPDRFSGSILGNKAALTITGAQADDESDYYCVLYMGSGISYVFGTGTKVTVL
39.9
Fab VH5-51_IGHD5-18*01>3_IGHJ4*01 G104D & V3-4_IGLJ1*01 (Fab, V domains shown, Fab; VH-CH1 (His6/Flag, Plasmid A) and VL-lambda CL (Plasmid E)) VH: EVQLVQSGAEVKKPGESLKISCKGSGYSFTSYWIGWVRQMPGKGLEWMGIIYPGDSDTRYSPSFQGQVTISADKSISTAYLQWSSLKASDTAMYYCARRGYSYDYDYFDYWGQGTLVTVSS VL: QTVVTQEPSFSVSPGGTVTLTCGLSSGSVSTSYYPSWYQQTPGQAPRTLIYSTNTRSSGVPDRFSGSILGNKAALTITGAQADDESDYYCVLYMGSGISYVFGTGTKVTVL
23.2
Fab VH5-51_IGHD5-18*01>3_IGHJ4*01 G100T & V3-4_IGLJ1*01 (Fab, V domains shown, Fab; VH-CH1 (His6/Flag, Plasmid A) and VL-lambda CL (Plasmid E)) VH: EVQLVQSGAEVKKPGESLKISCKGSGYSFTSYWIGWVRQMPGKGLEWMGIIYPGDSDTRYSPSFQGQVTISADKSISTAYLQWSSLKASDTAMYYCARRTYSYGYDYFDYWGQGTLVTVSS VL: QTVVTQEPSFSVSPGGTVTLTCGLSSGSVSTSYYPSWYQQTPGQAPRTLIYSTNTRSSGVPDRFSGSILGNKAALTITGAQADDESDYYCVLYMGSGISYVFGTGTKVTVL
11
